Target: KIAA1363 (Homo sapiens, UniProt Q6PIU2)
Sequence (Q6PIU2 1-408): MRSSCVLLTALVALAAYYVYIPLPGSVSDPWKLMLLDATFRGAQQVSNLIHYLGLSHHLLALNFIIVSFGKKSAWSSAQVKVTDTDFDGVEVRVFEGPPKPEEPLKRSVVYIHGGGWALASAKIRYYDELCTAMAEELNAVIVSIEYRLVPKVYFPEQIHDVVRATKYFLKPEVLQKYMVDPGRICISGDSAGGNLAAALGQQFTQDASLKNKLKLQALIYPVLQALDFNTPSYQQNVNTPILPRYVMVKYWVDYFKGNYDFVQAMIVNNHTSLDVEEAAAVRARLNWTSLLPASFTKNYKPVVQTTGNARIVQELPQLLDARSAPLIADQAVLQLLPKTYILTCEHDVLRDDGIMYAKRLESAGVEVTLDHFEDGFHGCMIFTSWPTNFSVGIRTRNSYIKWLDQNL
Assay: Gel-based competitive ABPP in living PC3 cells
Format: cell-based
Settings: read-out: IC50 for KIAA1363; PC3 cells, in situ
Reported Endpoint: IC50 (nM)
Report the value in nM with no unit label.

Query: Requested field: IC50. Item: CC(C)c1ccccc1OC(=O)NCCc1ccc2ccccc2c1 [JW480]
Reply: 6

* * *

Molecular target: KIAA1363 (Homo sapiens)
Sequence (Q6PIU2 1-408): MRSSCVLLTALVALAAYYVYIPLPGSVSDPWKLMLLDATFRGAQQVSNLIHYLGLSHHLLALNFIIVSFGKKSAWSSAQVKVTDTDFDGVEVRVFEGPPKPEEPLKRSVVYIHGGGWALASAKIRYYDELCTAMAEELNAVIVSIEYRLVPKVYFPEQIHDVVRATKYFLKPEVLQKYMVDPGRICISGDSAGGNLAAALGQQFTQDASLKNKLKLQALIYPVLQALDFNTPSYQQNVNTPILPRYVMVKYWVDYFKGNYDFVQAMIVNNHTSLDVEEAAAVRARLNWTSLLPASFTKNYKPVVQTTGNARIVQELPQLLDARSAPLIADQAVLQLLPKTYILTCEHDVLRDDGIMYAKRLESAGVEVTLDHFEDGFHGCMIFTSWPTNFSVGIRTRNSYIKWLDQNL
Test: Gel-based competitive ABPP in PC3 cell proteomes
Format: biochemical
Conditions: read-out: IC50 for human KIAA1363, in vitro treatment
Reported Endpoint: IC50 (nM)
Numbers only; they are read as nM.

Query: Looking for the measured IC50 of `CC(C)c1ccccc1OC(=O)NCCc1ccc2ccccc2c1` , can you help?
Reply: 12

* * *

molecular target: KIAA1363 (Homo sapiens); experiment: Gel-based competitive ABPP in living PC3 cells; assay type: cell-based; conditions: read-out: IC50 for KIAA1363; living PC3 cells, in situ treatment, presence or absence of 10% fetal calf serum
Reported Endpoint: IC50

Query: Quick one: IC50 of `CC(C)c1ccccc1OC(=O)NCCc1ccc2ccccc2c1` ?
Reply: 6 to 12 nM

* * *

target: AChE (Mus musculus)
Sequence (P21836 32-614): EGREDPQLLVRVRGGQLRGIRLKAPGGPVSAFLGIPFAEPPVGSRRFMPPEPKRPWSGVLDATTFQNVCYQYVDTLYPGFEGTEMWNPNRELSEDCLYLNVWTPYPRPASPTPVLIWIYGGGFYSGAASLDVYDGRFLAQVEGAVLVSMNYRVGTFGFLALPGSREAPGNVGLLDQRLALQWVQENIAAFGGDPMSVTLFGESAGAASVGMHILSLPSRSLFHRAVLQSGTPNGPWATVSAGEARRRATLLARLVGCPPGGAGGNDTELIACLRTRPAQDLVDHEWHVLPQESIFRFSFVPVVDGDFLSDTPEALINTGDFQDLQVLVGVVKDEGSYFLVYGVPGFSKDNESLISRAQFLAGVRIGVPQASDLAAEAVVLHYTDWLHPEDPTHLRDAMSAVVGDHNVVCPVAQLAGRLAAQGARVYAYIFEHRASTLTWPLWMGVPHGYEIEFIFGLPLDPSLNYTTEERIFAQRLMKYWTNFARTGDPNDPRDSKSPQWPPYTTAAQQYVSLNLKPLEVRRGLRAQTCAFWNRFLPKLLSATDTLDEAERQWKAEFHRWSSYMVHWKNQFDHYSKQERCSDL
Reported Endpoint: pIC50
Please treat pIC50 as minus the base-10 logarithm of the molar concentration.

Query: Entry under review: `COc1ccc(CNC(=O)Oc2cccc3c2OC(C)(C)C3)cc1` . Reported pIC50?
Reply: 6.00
